Tested on: Cyperus amuricus
Assay: Weed spectrum, greenhouse pot test
Assay type: in vivo
Conditions: Post-emergence, 50 g ai/ha, two weeks after application
From the text: To a rectangular plastic pot (surface area of 300 cm^2) in which sandy loam and mixed top soil (Boo-Nong Top Soil No. 3, for horticultural use) are filled in 1:1 ratio, eight different kinds of weed seeds including Poa annua and Digitaria sanguinalis as poaceae weed, Cyperus amuricus as cyperaceae weeds and Trifolium repens, Kummerowia striata, fleabane, Veronica officinalis and Portulaca oleracea as broadleaf weeds were sewn (50 to 100 seeds per each weed). […]

>  <Compound>
COc1nc(C)nc(NC(=O)NS(=O)(=O)c2cscc2C2(CF)OCCO2)n1 [Example 2]

>  <efficacy (0-100 scale)>
50

$$$$
>  <Compound>
Cc1cc(C)nc(NC(=O)NS(=O)(=O)c2ccccc2C(O)C(C)F)n1 (stereo not shown) [Example 1]

>  <efficacy (0-100 scale)>
100

$$$$
>  <Compound>
COc1cc(OC)nc(NC(=O)NS(=O)(=O)c2ncccc2C(F)(F)F)n1 [Control chemical No. 2, Flazasulfuron, reference compound]

>  <efficacy (0-100 scale)>
80

$$$$
>  <Compound>
CCOC(=O)c1cnn(C)c1S(=O)(=O)NC(=O)Nc1nc(OC)cc(OC)n1 [Control chemical No. 1, Pyrazosulfuron ethyl, reference compound]

>  <efficacy (0-100 scale)>
80

$$$$
